Let's look at some compounds and their measured logP.
assay: Lipophilicity, log P of the compound; conditions: octanol/water
Respond numerically, and do not add a unit to the figure.

Worked cases, answers included:
CC1(C)CNP(=O)(NC(=O)c2ccc([N+](=O)[O-])cc2)NC1; 0.34
CC1(C)CNP(=O)(NC(=O)c2cccc([N+](=O)[O-])c2)NC1; 0.34
Cc1ccc(OP2(=O)NCC(C)(C)CN2)cc1; 1.55
O=P1(N(CCCl)CCCl)NCCCO1 (stereo unspecified) [CYCLOPHOSPHAMIDE ANHYDROUS]; 1.12
CC1(C)CNP(=O)(NC(=O)c2ccccc2[N+](=O)[O-])NC1; 0.34

Below: the item to evaluate.
[ask] For the compound CC1(C)CNP(=O)(Nc2ccc(S(N)(=O)=O)cc2)NC1 , give its measured logP value.
[reply] -0.78

* * *

system: K562; test: Antiproliferative activity against Homo sapiens (human) K562 cells after 48 hr by MTT assay; format: functional, cell-based; details: K562, 48 h
Outcome measure: IC50
Answer shape: numeric part, then the unit.

Worked cases, answers included:
CC1(C)CNP(=O)(NC(=O)c2ccc([N+](=O)[O-])cc2)NC1; 6.49 µM
CC1(C)CNP(=O)(NC(=O)c2ccccc2[N+](=O)[O-])NC1; 6.87 µM
CC1(C)CNP(=O)(Nc2ccc(S(N)(=O)=O)cc2)NC1; 58.2 µM

Below: the item to evaluate.
[ask] For the compound CC1(C)CNP(=O)(NC(=O)c2cccc([N+](=O)[O-])c2)NC1 , give its measured IC50 value.
[reply] 5.08 µM
